test system: p97-Myc
Sequence (Q01853 2-806): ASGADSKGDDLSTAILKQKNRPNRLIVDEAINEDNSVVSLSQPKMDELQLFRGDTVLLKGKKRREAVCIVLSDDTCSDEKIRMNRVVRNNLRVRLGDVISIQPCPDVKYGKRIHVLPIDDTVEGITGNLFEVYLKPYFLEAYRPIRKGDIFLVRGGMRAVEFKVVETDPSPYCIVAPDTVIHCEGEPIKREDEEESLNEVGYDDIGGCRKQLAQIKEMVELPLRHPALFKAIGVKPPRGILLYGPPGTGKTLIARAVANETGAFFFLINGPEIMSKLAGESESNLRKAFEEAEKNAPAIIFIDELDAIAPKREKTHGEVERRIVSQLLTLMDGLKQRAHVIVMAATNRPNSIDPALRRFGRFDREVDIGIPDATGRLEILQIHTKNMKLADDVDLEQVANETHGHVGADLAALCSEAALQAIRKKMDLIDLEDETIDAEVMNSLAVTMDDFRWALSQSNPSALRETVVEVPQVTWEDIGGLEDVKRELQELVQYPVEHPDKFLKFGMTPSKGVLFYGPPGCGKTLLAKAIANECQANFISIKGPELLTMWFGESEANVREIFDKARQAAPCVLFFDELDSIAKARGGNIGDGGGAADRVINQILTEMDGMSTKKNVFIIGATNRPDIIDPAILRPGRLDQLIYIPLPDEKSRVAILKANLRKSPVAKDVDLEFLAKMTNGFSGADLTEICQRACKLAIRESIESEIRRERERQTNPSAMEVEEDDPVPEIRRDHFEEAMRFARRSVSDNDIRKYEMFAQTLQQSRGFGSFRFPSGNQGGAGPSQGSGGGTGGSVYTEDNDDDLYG
protocol text: p97-Myc co-IP, 293 cells, MudPIT MS
measured endpoint: sequence count
// response body must contain only the number

Here's what some known entries look like.
| binder | readout value |
| --- | --- |
| endogenous p37 (protein, human, UniProt Q14CS0 2-331, looked up) AEGGGPEPGEQERRSSGPRPPSARDLQLALAELYEDEVKCKSSKSNRPKATVFKSPRTPPQRFYSSEHEYSGLNIVRPSTGKIVNELFKEAREHGAVPLNEATRASGDDKSKSFTGGGYRLGSSFCKRSEYIYGENQLQDVQILLKLWSNGFSLDDGELRPYNEPTNAQFLESVKRGEIPLELQRLVHGGQVNLDMEDHQDQEYIKPRLRFKAFSGEGQKLGSLTPEIVSTPSSPEEEDKSILNAVVLIDDSVPTTKIQIRLADGSRLIQRFNSTHRILDVRNFIVQSRPEFAALDFILVTSFPNKELTDESLTLLEADILNTVLLQQLK | 6 |
| endogenous UBXD4 (protein, human, UniProt P68543 1-259, looked up) MKDVDNLKSIKEEWVCETGSDNQPLGNNQQSNCEYFVDSLFEEAQKVSSKCVSPAEQKKQVDVNIKLWKNGFTVNDDFRSYSDGASQQFLNSIKKGELPSELQGIFDKEEVDVKVEDKKNEICLSTKPVFQPFSGQGHRLGSATPKIVSKAKNIEVENKNNLSAVPLNNLEPITNIQIWLANGKRIVQKFNITHRVSHIKDFIEKYQGSQRSPPFSLATALPVLRLLDETLTLEEADLQNAVIIQRLQKTASFRELSEH | 4 |
| endogenous p47 (protein, human, UniProt Q9UNZ2 1-370, looked up) MAAERQEALREFVAVTGAEEDRARFFLESAGWDLQIALASFYEDGGDEDIVTISQATPSSVSRGTAPSDNRVTSFRDLIHDQDEDEEEEEGQRFYAGGSERSGQQIVGPPRKKSPNELVDDLFKGAKEHGAVAVERVTKSPGETSKPRPFAGGGYRLGAAPEEESAYVAGEKRQHSSQDVHVVLKLWKSGFSLDNGELRSYQDPSNAQFLESIRRGEVPAELRRLAHGGQVNLDMEDHRDEDFVKPKGAFKAFTGEGQKLGSTAPQVLSTSSPAQQAENEAKASSSILIDESEPTTNIQIRLADGGRLVQKFNHSHRISDIRLFIVDARPAMAATSFILMTTFPNKELADESQTLKEANLLNAVIVQRLT | 19 |

Query: If you can, please state the reported sequence count value of endogenous SAKS1 (protein, human, UniProt Q04323 2-297, looked up) AELTALESLIEMGFPRGRAEKALALTGNQGIEAAMDWLMEHEDDPDVDEPLETPLGHILGREPTSSEQGGLEGSGSAAGEGKPALSEEERQEQTKRMLELVAQKQREREEREEREALERERQRRRQGQELSAARQRLQEDEMRRAAEERRREKAEELAARQRVREKIERDKAERAKKYGGSVGSQPPPVAPEPGPVPSSPSQEPPTKREYDQCRIQVRLPDGTSLTQTFRAREQLAAVRLYVELHRGEELGGGQDPVQLLSGFPRRAFSEADMERPLQELGLVPSAVLIVAKKCPS .
Reply: 2
